test: Stabilization of concentrated paracetamol solution by free radical scavengers; assay type: physicochemical; conditions: 1 mg/ml; 48 hours, dark

| COMPOUND | Appearance at 70° C., color intensity |
| --- | --- |
| OCC(O)CS (stereo not drawn) [α-monothioglycerol] | colorless |
| O[C@H](CS)[C@H](O)CS (racemic) [Dithiothreitol] | colorless |
| N[C@@H](CCC(=O)N[C@@H](CS)C(=O)NCC(=O)O)C(=O)O [Reduced glutathion] | colorless |

----------
test: Stabilization of dilute paracetamol solution by free radical scavengers (formula A); assay type: physicochemical; conditions: 1 mg/ml; 48 hours

| COMPOUND | color at 70° C. |
| --- | --- |
| O[C@H](CS)[C@H](O)CS (racemic) [Dithiothreitol] | colorless |
| N[C@@H](CCC(=O)N[C@@H](CS)C(=O)NCC(=O)O)C(=O)O [Reduced glutathion] | colorless |
| Cl.N[C@@H](CS)C(=O)O [Cystein hydrochloride] | colorless |

----------
assay: Stabilization of dilute paracetamol solution by free radical scavengers (formula A); assay type: physicochemical; details: 1 mg/ml; 48 hours

| MOLECULE | color upon exposure to light |
| --- | --- |
| Cl.N[C@@H](CS)C(=O)O [Cystein hydrochloride] | colorless |
| N[C@@H](CCC(=O)N[C@@H](CS)C(=O)NCC(=O)O)C(=O)O [Reduced glutathion] | colorless |
| O[C@H](CS)[C@H](O)CS (racemic) [Dithiothreitol] | colorless |
| O=C1O[C@H]([C@@H](O)CO)C([O-])=C1O.[Na+] [Sodium ascorbate] | colorless |

----------
test: Stabilization of concentrated paracetamol solution by free radical scavengers; type: physicochemical; settings: 1 mg/ml; 48 hours actinic light
EXPERIMENTAL_READOUT: Appearance upon exposure to light, color intensity

| COMPOUND | TEST_RESULT |
| --- | --- |
| O[C@H](CS)[C@H](O)CS (racemic) [Dithiothreitol] | colorless |
| N[C@@H](CCC(=O)N[C@@H](CS)C(=O)NCC(=O)O)C(=O)O [Reduced glutathion] | colorless |
| OCC(O)CS (stereo not drawn) [α-monothioglycerol] | colorless |
